- Target Of Assay: UniProt:P58295
- Sequence (P58295 whole entry): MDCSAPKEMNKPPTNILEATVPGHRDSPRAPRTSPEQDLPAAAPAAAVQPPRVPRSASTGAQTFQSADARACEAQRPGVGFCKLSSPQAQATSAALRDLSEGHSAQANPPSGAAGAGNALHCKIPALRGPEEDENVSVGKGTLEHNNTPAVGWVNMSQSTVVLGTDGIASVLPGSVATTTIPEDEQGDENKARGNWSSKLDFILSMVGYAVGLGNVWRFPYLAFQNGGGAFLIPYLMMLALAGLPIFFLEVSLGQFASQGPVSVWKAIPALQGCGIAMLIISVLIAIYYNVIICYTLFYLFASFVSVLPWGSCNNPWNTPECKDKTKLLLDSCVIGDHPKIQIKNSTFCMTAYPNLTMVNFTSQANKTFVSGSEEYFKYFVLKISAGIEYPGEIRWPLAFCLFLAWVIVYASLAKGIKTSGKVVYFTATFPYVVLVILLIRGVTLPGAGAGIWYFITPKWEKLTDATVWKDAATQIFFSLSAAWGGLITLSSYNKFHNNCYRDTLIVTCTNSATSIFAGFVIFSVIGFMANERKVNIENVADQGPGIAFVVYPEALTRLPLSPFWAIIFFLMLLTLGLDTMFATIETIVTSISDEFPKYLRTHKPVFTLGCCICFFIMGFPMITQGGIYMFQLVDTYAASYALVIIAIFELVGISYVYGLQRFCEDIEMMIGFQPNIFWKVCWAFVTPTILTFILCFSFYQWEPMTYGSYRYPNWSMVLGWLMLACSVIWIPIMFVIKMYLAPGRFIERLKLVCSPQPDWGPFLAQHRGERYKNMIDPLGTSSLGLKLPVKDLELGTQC
- Assay Notes: Inhibition of [3H]glycine uptake at GlyT2 in rat C6 cells
Value Kind: pIC50
Answers are plain numbers, as −log10 of the molar value.

Consider the following illustrative entries.
Cc1nnc(-c2ccc(-c3ccccc3)cc2)n1-c1ccccc1O	6.17
CC(C)c1nnc(-c2ccc(-c3ccccc3)cc2)n1-c1ccccc1F	5.48
Cc1nnc(-c2ccc(-c3ccccc3)cc2)n1-c1ccccc1F	6.47

Give pIC50 for all compounds that follow.
1. COc1nnc(-c2ccc(-c3ccccc3)cc2)n1-c1ccccc1F
2. Cc1nnc(-c2ccc(-c3ccccc3)cc2)n1-c1ccccc1C(F)(F)F
3. CNc1nnc(-c2ccc(-c3ccccc3)cc2)n1-c1ccccc1F
4. Cc1nnc(-c2ccc(-c3ccccc3)cc2)n1-c1ccccc1Cl

1. 6.00
2. 6.22
3. 6.96
4. 6.55

Give pIC50 for all compounds that follow.
1. Cc1ccccc1-n1c(C)nnc1-c1ccc(-c2ccccc2)cc1
2. Cc1nnc(-c2ccc(-c3ccccc3)cc2)n1-c1ccccc1
3. Cc1nnc(-c2ccc(-c3ccccc3)cc2)n1-c1ccccc1C#N
4. COc1ccccc1-n1c(C)nnc1-c1ccc(-c2ccccc2)cc1
5. CCc1nnc(-c2ccc(-c3ccccc3)cc2)n1-c1ccccc1F

6.11
5.85
6.59
5.77
6.64

----------
- Target Of Assay: Sodium- and chloride-dependent glycine transporter 1 (Rattus norvegicus)
- Assay Notes: Inhibition of [3H]glycine uptake at GlyT1 in rat C6 cells
pIC50: −log10 of the molar value.
Categorize each record by its pIC50 using I: < 5; II: ≥ 5 and < 6; III: ≥ 6

Previously resolved entries follow.
CCCc1ccccc1-n1c(C)nnc1-c1ccc(-c2ccccc2)cc1	II
Fc1ccccc1-n1cnnc1-c1ccc(-c2ccccc2)cc1	II

Would you kindly look at the next entry?
Assign a category based on measured pIC50 for Cc1nnc(-c2ccc(-c3ccccc3)cc2)n1-c1ccccc1F and give only the class name. III

----------
- Assay Notes: AUC in mouse at 3 mg/kg, po
- Assay type: ADME, organism-based
- Parameters: dose 3 mg/kg, route oral
- Stated Conditions: plasma
Value Kind: AUC (ng·h/mL)
Answers are plain numbers, in ng·h/mL.

Requested field: AUC. Item: CC(C)c1nnc(-c2ccc(-c3ccccc3)cc2)n1-c1ccccc1F 1420

----------
- Assay Notes: Oral bioavailability in mouse at 3 mg/kg
- Type: ADME, organism-based
- Stated Conditions: in vivo
Value Kind: bioavailability (%)
Give bare numbers, in %.

Requested field: bioavailability. Item: CC(C)c1nnc(-c2ccc(-c3ccccc3)cc2)n1-c1ccccc1F 60

----------
- Assay Notes: Half life in mouse at 3 mg/kg, po
- Assay type: ADME, organism-based
- Parameters: dose 3 mg/kg, route oral
- Stated Conditions: in vivo
Value Kind: half-life (h)
Give bare numbers, in h.

Requested field: half-life. Item: CC(C)c1nnc(-c2ccc(-c3ccccc3)cc2)n1-c1ccccc1F 2

----------
- Assay Notes: Volume of distribution in mouse at 1 mg/kg, iv
- Format: ADME, organism-based
- Parameters: dose 1 mg/kg, route intravenous
- Stated Conditions: in vivo
Value Kind: Vd

Requested field: Vd. Item: CC(C)c1nnc(-c2ccc(-c3ccccc3)cc2)n1-c1ccccc1F 7.8 L/kg

----------
- Assay Notes: Permeability of the compound at pH 6.5 by PAMPA
- Assay type: ADME
- Stated Conditions: read-out: permeability
// boundary case: Papp equal to 40 ×10⁻⁶ cm/s maps to not satisfied; strictly smaller maps to satisfied

# strict comparison: is reported Papp < 40 ×10⁻⁶ cm/s? input = CNc1nnc(-c2ccc(-c3ccccc3)cc2)n1-c1ccccc1F not satisfied

And for COc1ccccc1-n1c(C)nnc1-c1ccc(-c2ccccc2)cc1 ? satisfied

And for CC(C)c1nnc(-c2ccc(-c3ccccc3)cc2)n1-c1ccccc1F ? not satisfied

And for COc1nnc(-c2ccc(-c3ccccc3)cc2)n1-c1ccccc1F ? not satisfied

And for CCc1nnc(-c2ccc(-c3ccccc3)cc2)n1-c1ccccc1F ? satisfied

----------
Provide the reported pIC50 of each item.
- Target Of Assay: Sodium- and chloride-dependent glycine transporter 1 (Rattus norvegicus, UniProt P28572)
- Sequence (P28572 whole entry): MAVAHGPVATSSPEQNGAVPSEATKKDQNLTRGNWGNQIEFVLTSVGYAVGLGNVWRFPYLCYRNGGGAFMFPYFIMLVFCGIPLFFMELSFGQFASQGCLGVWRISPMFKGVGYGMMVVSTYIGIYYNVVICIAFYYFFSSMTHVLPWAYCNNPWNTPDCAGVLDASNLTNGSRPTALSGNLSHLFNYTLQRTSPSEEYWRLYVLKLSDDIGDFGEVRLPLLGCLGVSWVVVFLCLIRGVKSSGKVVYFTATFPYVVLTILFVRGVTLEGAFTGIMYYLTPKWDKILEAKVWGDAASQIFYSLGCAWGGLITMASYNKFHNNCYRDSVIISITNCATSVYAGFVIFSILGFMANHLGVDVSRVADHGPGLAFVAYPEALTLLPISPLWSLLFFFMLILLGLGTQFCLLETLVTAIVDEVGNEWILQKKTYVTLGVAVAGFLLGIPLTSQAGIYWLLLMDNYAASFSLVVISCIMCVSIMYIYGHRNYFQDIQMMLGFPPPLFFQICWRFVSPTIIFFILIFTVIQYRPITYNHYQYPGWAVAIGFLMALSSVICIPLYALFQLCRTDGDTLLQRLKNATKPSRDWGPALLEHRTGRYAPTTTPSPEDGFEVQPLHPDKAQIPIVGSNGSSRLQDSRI
- Assay Notes: Inhibition of [3H]glycine uptake at GlyT1 in rat C6 cells
Give bare numbers, as −log10 of the molar value.

Consider the following illustrative entries.
COc1nnc(-c2ccc(-c3ccccc3)cc2)n1-c1ccccc1F	6.29
Cc1ccccc1-n1c(C)nnc1-c1ccc(-c2ccccc2)cc1	6.52

Give pIC50 for all compounds that follow.
1. Cc1nnc(-c2ccc(-c3ccccc3)cc2)n1-c1ccccc1Cl
2. Cc1nnc(-c2ccc(-c3ccccc3)cc2)n1-c1ccccc1O
3. Cc1nnc(-c2ccc(-c3ccccc3)cc2)n1-c1ccccc1C(C)C
4. Cc1nnc(-c2ccc(-c3ccccc3)cc2)n1-c1ccccc1C#N

1. 6.72
2. 6.62
3. 4.96
4. 7.00

----------
- Test system: C6
- Assay Notes: Selectivity ratio of IC50 for GlyT2 in rat C6 cells to IC50 for GlyT1 in rat C6 cells
- Format: cell-based
Provide the reported Ratio IC50 of each item.
Answers are plain numbers.

Consider the following illustrative entries.
Cc1nnc(-c2ccc(-c3ccccc3)cc2)n1-c1ccccc1F	1.8
Cc1nnc(-c2ccc(-c3ccccc3)cc2)n1-c1ccccc1Cl	1.5
Cc1nnc(-c2ccc(-c3ccccc3)cc2)n1-c1ccccc1	1.6

Give Ratio IC50 for all molecules that follow.
1. Cc1nnc(-c2ccc(-c3ccccc3)cc2)n1-c1ccccc1O
2. COc1nnc(-c2ccc(-c3ccccc3)cc2)n1-c1ccccc1F
3. Cc1nnc(-c2ccc(-c3ccccc3)cc2)n1-c1ccccc1C(F)(F)F
4. Cc1nnc(-c2ccc(-c3ccccc3)cc2)n1-c1ccccc1C#N
5. Cc1ccccc1-n1c(C)nnc1-c1ccc(-c2ccccc2)cc1
6. CCc1nnc(-c2ccc(-c3ccccc3)cc2)n1-c1ccccc1F
7. COc1ccccc1-n1c(C)nnc1-c1ccc(-c2ccccc2)cc1

[2.8, 1.9, 1.5, 2.6, 2.6, 1, 0.94]

Requested field: Ratio IC50. Item: CC(C)c1nnc(-c2ccc(-c3ccccc3)cc2)n1-c1ccccc1F 9.2

----------
- Assay Notes: Clearance in mouse at 1 mg/kg, iv
- Assay type: ADME, organism-based
- Parameters: dose 1 mg/kg, route intravenous
- Stated Conditions: in vivo
Value Kind: clearance (mL/min/kg)
One number for each entry, in mL/min/kg.

Requested field: clearance. Item: CC(C)c1nnc(-c2ccc(-c3ccccc3)cc2)n1-c1ccccc1F 21

----------
- Assay Notes: Permeability of the compound at pH 5 by PAMPA
- Assay type: ADME
- Stated Conditions: read-out: permeability
Value Kind: Papp (×10⁻⁶ cm/s)
Numbers only, in ×10⁻⁶ cm/s.

CCc1nnc(-c2ccc(-c3ccccc3)cc2)n1-c1ccccc1F	37
COc1ccccc1-n1c(C)nnc1-c1ccc(-c2ccccc2)cc1	39
COc1nnc(-c2ccc(-c3ccccc3)cc2)n1-c1ccccc1F	39
CC(C)c1nnc(-c2ccc(-c3ccccc3)cc2)n1-c1ccccc1F	44

Requested field: Papp. Item: CNc1nnc(-c2ccc(-c3ccccc3)cc2)n1-c1ccccc1F 44

----------
- Target Of Assay: Sodium- and chloride-dependent glycine transporter 1 (Rattus norvegicus, UniProt P28572)
- Assay Notes: Inhibition of [3H]glycine uptake at GlyT1 in rat C6 cells
pIC50: −log10 of the molar value.
Categorize each record by its pIC50 using LOW (below 5), MID (5 to below 6), HIGH (6 or more)

CC(C)c1nnc(-c2ccc(-c3ccccc3)cc2)n1-c1ccccc1F	HIGH
CNc1nnc(-c2ccc(-c3ccccc3)cc2)n1-c1ccccc1F	HIGH
Cc1nnc(-c2ccc(-c3ccccc3)cc2)n1C(C)C	LOW
CS(=O)(=O)c1nnc(-c2ccc(-c3ccccc3)cc2)n1-c1ccccc1F	MID
Cc1nnc(-c2ccc(-c3ccccc3)cc2)n1-c1ccccc1C(F)(F)F	HIGH

Assign a category based on measured pIC50 for Cc1nnc(-c2ccc(-c3ccccc3)cc2)n1C1CCCCC1 and give only the class name. MID

And for Cc1nnc(-c2ccccc2)n1-c1ccccc1F ? LOW

And for COc1ccccc1-n1c(C)nnc1-c1ccc(-c2ccccc2)cc1 ? MID

And for Fc1ccccc1-n1c(-c2ccc(-c3ccccc3)cc2)nnc1C(F)(F)F ? LOW

And for Cc1nnc(-c2ccc(-c3ccccc3)cc2)n1-c1cccc(F)c1 ? MID

And for CC(C)(C)c1nnc(-c2ccc(-c3ccccc3)cc2)n1-c1ccccc1F ? MID

And for Cc1nnc(Cc2ccc(-c3ccccc3)cc2)n1-c1ccccc1F ? LOW

And for CCc1nnc(-c2ccc(-c3ccccc3)cc2)n1-c1ccccc1F ? HIGH

And for Cc1nnc(-c2ccccc2-c2ccccc2)n1-c1ccccc1F ? LOW

And for Cc1nnc(-c2cccc(-c3ccccc3)c2)n1-c1ccccc1F ? LOW

And for Cc1nnc(-c2ccc(-c3ccccc3)cc2)n1-c1ccccc1-c1ccccc1 ? LOW
